# credit: paper PMC3510010

Below, each entry is listed alongside its reported pKd.
ASSAY SYSTEM: POS-1(1-206) (Caenorhabditis elegans, UniProt G5EF15 1-206)
Sequence (G5EF15 1-206): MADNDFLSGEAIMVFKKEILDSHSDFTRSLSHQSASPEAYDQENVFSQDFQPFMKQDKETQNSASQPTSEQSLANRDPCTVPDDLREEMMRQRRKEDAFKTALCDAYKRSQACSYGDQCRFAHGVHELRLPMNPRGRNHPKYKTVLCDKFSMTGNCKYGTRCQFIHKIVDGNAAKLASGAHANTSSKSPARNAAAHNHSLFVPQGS
ASSAY DETAILS: F-EMSA
pKd: −log10 of the molar value.
PROPERTY LABEL: pKd

[
  {
    "BINDER": "UUUUUCUUAUUCUAGACCAAUAUUGUAAGCU (ssRNA) [∆GBM]",
    "PROPERTY LABEL": "pKd",
    "RECORDED NUMBER": 7.68
  },
  {
    "BINDER": "UUUUUCUCCCUCUAGACUAACCCUGUAAGCU (ssRNA) [∆5′ 3′ PRE]",
    "PROPERTY LABEL": "pKd",
    "RECORDED NUMBER": 6.51
  }
]
